Structures can show the parent of a compound that is named as a salt.
Each entry below carries its measured Ki, system: M. tuberculosis DXR (MtDXR) (Mycobacterium tuberculosis, UniProt P9WNS1).
Sequence (P9WNS1 whole entry, looked up): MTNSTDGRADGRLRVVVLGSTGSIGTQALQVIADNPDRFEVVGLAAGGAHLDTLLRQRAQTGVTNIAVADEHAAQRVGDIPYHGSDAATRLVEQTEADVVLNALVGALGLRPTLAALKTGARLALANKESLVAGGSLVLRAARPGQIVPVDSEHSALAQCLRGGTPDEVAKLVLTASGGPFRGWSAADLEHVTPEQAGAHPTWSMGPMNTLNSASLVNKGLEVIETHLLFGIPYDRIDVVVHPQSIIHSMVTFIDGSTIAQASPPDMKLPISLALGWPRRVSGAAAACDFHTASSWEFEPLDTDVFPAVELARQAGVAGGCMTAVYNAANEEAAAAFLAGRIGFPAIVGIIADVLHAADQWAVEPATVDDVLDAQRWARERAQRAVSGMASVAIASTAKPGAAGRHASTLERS

Compound: O=P(O)(O)CCc1ccccc1 [Compound 20]
Measured Target: M. tuberculosis DXR (MtDXR) (Mycobacterium tuberculosis, UniProt P9WNS1)
Ki: > 100 µM
//
Compound: O=S(=O)(O)Cc1ccc(-c2ccccc2)cn1 [Compound 48]
Measured Target: M. tuberculosis DXR (MtDXR) (Mycobacterium tuberculosis, UniProt P9WNS1)
Ki: > 100 µM
//
Compound: O=P(O)(O)CCCc1ccccn1 [Compound 13]
Measured Target: M. tuberculosis DXR (MtDXR) (Mycobacterium tuberculosis, UniProt P9WNS1)
Ki: > 100 µM
//
Compound: O=P(O)(O)Cc1cnccn1 [Compound 16]
Measured Target: M. tuberculosis DXR (MtDXR) (Mycobacterium tuberculosis, UniProt P9WNS1)
Ki: > 100 µM
//
Compound: O=P(O)(O)C(Nc1ccc(Cl)cn1)P(=O)(O)O [Compound 6, reference compound]
Measured Target: M. tuberculosis DXR (MtDXR) (Mycobacterium tuberculosis, UniProt P9WNS1)
Ki: > 100 µM
//
Compound: O=P(O)(O)Cc1cc(-c2ccc(F)cc2)ccn1 [Compound 28]
Measured Target: M. tuberculosis DXR (MtDXR) (Mycobacterium tuberculosis, UniProt P9WNS1)
Ki: > 100 µM
//
Compound: COc1cccc(-c2ccc(CP(=O)(O)O)nc2)c1 [Compound 37]
Measured Target: M. tuberculosis DXR (MtDXR) (Mycobacterium tuberculosis, UniProt P9WNS1)
Ki: > 100 µM
//
Compound: O=C(O)c1ccccn1 [Compound 39]
Measured Target: M. tuberculosis DXR (MtDXR) (Mycobacterium tuberculosis, UniProt P9WNS1)
Ki: > 100 µM
//
Compound: O=P(O)(O)c1ccccc1 [Compound 18, Phenylphosphonic acid disodium salt]
Measured Target: M. tuberculosis DXR (MtDXR) (Mycobacterium tuberculosis, UniProt P9WNS1)
Ki: > 100 µM
//
Compound: O=C(O)c1ccc(-c2ccccc2)cn1 [Compound 45, 5-Phenylpyridine-2-carboxylic acid]
Measured Target: M. tuberculosis DXR (MtDXR) (Mycobacterium tuberculosis, UniProt P9WNS1)
Ki: > 100 µM
//
Compound: O=C(O)Cc1ccccn1 [Compound 40]
Measured Target: M. tuberculosis DXR (MtDXR) (Mycobacterium tuberculosis, UniProt P9WNS1)
Ki: > 100 µM
//
Compound: O=P(O)(O)Cc1ccc(OCc2ccccc2)cn1 [Compound 31]
Measured Target: M. tuberculosis DXR (MtDXR) (Mycobacterium tuberculosis, UniProt P9WNS1)
Ki: > 100 µM
//
Compound: O=P(O)(O)Cc1cccnc1 [Compound 14]
Measured Target: M. tuberculosis DXR (MtDXR) (Mycobacterium tuberculosis, UniProt P9WNS1)
Ki: > 100 µM
//
Compound: O=P(O)(O)CCc1ccccn1 [Compound 12]
Measured Target: M. tuberculosis DXR (MtDXR) (Mycobacterium tuberculosis, UniProt P9WNS1)
Ki: > 100 µM
//
Compound: O=P(O)(O)Cc1cccc(-c2ccccc2)n1 [Compound 33]
Measured Target: M. tuberculosis DXR (MtDXR) (Mycobacterium tuberculosis, UniProt P9WNS1)
Ki: > 100 µM
//
Compound: O=P(O)(O)Cc1ccccc1 [Compound 19, Benzylphosphonic acid disodium salt]
Measured Target: M. tuberculosis DXR (MtDXR) (Mycobacterium tuberculosis, UniProt P9WNS1)
Ki: > 100 µM
//
Compound: O=P(O)(O)Cc1ccc(Cl)c(Cl)c1 [Compound 21]
Measured Target: M. tuberculosis DXR (MtDXR) (Mycobacterium tuberculosis, UniProt P9WNS1)
Ki: > 100 µM
//
Compound: O=C(O)Cc1ccncc1 [Compound 42]
Measured Target: M. tuberculosis DXR (MtDXR) (Mycobacterium tuberculosis, UniProt P9WNS1)
Ki: > 100 µM
//
Compound: Cc1ccc(-c2ccc(CP(=O)(O)O)nc2)cc1 [Compound 36]
Measured Target: M. tuberculosis DXR (MtDXR) (Mycobacterium tuberculosis, UniProt P9WNS1)
Ki: > 100 µM
//
Compound: O=C(O)Cc1cccnc1 [Compound 41]
Measured Target: M. tuberculosis DXR (MtDXR) (Mycobacterium tuberculosis, UniProt P9WNS1)
Ki: > 100 µM
//
Compound: O=P(O)(O)CCc1ccccc1O [Compound 22]
Measured Target: M. tuberculosis DXR (MtDXR) (Mycobacterium tuberculosis, UniProt P9WNS1)
Ki: > 100 µM
//
Compound: O=P(O)(O)Cc1cccc(O)c1O [Compound 23]
Measured Target: M. tuberculosis DXR (MtDXR) (Mycobacterium tuberculosis, UniProt P9WNS1)
Ki: > 100 µM
//
Compound: O=P(O)(O)c1ccccn1 [Compound 11]
Measured Target: M. tuberculosis DXR (MtDXR) (Mycobacterium tuberculosis, UniProt P9WNS1)
Ki: > 100 µM
//
Compound: O=P(O)(O)Cc1ccc(-c2ccc(Cl)cc2)cn1 [Compound 35]
Measured Target: M. tuberculosis DXR (MtDXR) (Mycobacterium tuberculosis, UniProt P9WNS1)
Ki: > 100 µM

Data credit: paper PMC3601441
